Test system: β-galactosidase in CMV-LacZ C2C12 myoblasts
Assay: CMV-LacZ secondary screen in C2C12 myoblasts (β-Gal stabilizing assay)
Assay type: cell-based, mouse
Conditions: 10 uM; SU9516 analogs, C2C12 CMV-LacZ, N=2
Excerpt: In order to determine compounds that acted to stabilize β-gal in myogenic cells, a CMV-LacZ C2C12 cell line was used in a secondary screen. The EGFP gene from the pEGFP (Clontech) vector was replaced by LACZ PCR product with digests of the vector/PCR product performed using EcoRI (NEB) and NotI (NEB) and ligated using T4 DNA Ligase (NEB) following standard procedures to produce the CMV-LACZ vector. […]
Measured CMV-LACZ in Myoblasts, value relative to DMSO accompanies every entry in the list below.
measurement_type: CMV-LACZ in Myoblasts, value relative to DMSO

{"columns": ["molecule", "assay_value"],
 "data": [
  ["CCN(CC)CCNC(=O)c1c(C)[nH]c(/C=C2\\C(=O)Nc3ccc(F)cc32)c1C [NCGC00164631-04]", 0.4405],
  ["COc1ccc(C(=O)/C=C2/C(=O)Nc3ccccc32)cc1", 1.0762],
  ["Cc1ccc2c(c1)/C(=C/c1ccc(F)cc1)C(=O)N2", 1.3214],
  ["CCn1c(O)c(C(C#N)=C2N=c3ccccc3=N2)c2ccccc21", 1.3619],
  ["O=Nc1c(-c2c(O)[nH]c3ccccc23)[nH]c2ccccc12 [NCGC00015545-07]", 0.8603],
  ["O=Nc1c(-c2c(O)[nH]c3ccccc23)[nH]c2ccccc12 [NCGC00015545-02]", 0.8475],
  ["O=C1Nc2ccccc2/C1=C\\c1cccn1-c1ccc(OC(F)(F)F)cc1", 1.0785],
  ["CC(C)Oc1ccc(C(=O)/C=C2/C(=O)Nc3ccccc32)cc1", 1.2231],
  ["CCO/C(C)=C1\\C(=O)Nc2ccccc21", 0.9457],
  ["COc1cc(OC)c(/C=C2/C(=O)Nc3ccccc32)c(OC)c1", 1.2439]
]}

Hey, just so you know, these numbers are from patent US9980943B2.
